Reference source for all entries: PubChem BioAssay AID2060500

What viability, T/C was measured for each of the following?
Tested on: 596521-263-R-J1-PDC complex spheroids, viability % of control
Test: Anticancer human tumor 596521-263-R-J1-PDC patient-derived soft tissue sarcoma cell line growth inhibition [GQUAD]
Settings: second compound 3.16 µM; first compound 3.16 µM; stronger effect = lower value
Excerpt: DNA G-quadruplex Stabilizer Agents in Combinations in Complex Spheroids A high-throughput screen of multi-cell type tumor spheroids was designed to identify active combinations of DNA G-quadruplex stabilizer agents and targeted small molecules. […] Compounds. […] If the clinical Cmax for an agent had not been determined, the highest concentration tested was 10 microM. […]

Some compounds with known viability, T/C results, for comparison:
Read off the recorded viability, T/C for Nc1ccn(C2OC(CO)C(O)C2(F)F)c(=O)n1 (stereo not given) + CN(C)c1ccc(Nc2c3ccc(NC(=O)CCN4CCCC4)cc3nc3cc(NC(=O)CCN4CCCC4)ccc23)cc1
40.5%

Read off the recorded viability, T/C for CC1COCCN1c1cc(C2(S(C)(=N)=O)CC2)nc(-c2ccnc3[nH]ccc23)n1 (stereo not given) + Cc1cnc(CNC(=O)c2c(=O)c3ccc(N4CCCN(C)CC4)nc3n3c2sc2ccccc23)cn1
51.9%

Read off the recorded viability, T/C for CC(C)(O)C1CCC(Nc2ccc3ncc(-c4cccc(C(F)(F)F)c4)n3n2)CC1 (stereo not given) + CN(C)c1ccc(Nc2c3ccc(NC(=O)CCN4CCCC4)cc3nc3cc(NC(=O)CCN4CCCC4)ccc23)cc1
18.1%

Read off the recorded viability, T/C for CC1COCCN1c1cc(C2(O)CC3CCC(C2)O3)c2cnn(-c3ccn[nH]3)c2n1 (stereo not given) + CN(C)c1ccc(Nc2c3ccc(NC(=O)CCN4CCCC4)cc3nc3cc(NC(=O)CCN4CCCC4)ccc23)cc1
23.9%

With those in mind, consider the next compound.
Read off the recorded viability, T/C for CC(C)n1c(=O)n(C)c2cnc3cc(F)c(-c4ccc(OCCCN5CCCCC5)nc4)cc3c21 + Cc1[nH]c2ccc(F)cc2c1-c1nc2c3cccnc3c3ncccc3c2[nH]1
80.6%

====

tested on: 596521-263-R-J1-PDC complex spheroids, viability % of control; assay: Anticancer human tumor 596521-263-R-J1-PDC cell line growth inhibition [GQUAD]; conditions: second compound 10 µM; first compound 10 µM; stronger effect = lower value;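 also: spheroids exposed to drugs for 7 days before viability reading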;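 as to viability, T/C: 100% = DMSO vehicle control viability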
measured.attribute: viability, T/C (%)
Answers are plain numbers, in %.

Kindly give each listed record's viability, T/C.
1. CC(=O)O[C@H]1C(=O)[C@@]2(C)[C@H]([C@H](OC(=O)c3ccccc3)[C@]3(O)C[C@H](OC(=O)[C@H](O)[C@@H](NC(=O)c4ccccc4)c4ccccc4)C(C)=C1C3(C)C)[C@]1(OC(C)=O)CO[C@@H]1C[C@@H]2O + Cc1[nH]c2ccc(F)cc2c1-c1nc2c3cccnc3c3ncccc3c2[nH]1
2. Nc1ccn(C2OC(CO)C(O)C2(F)F)c(=O)n1 (stereo not drawn) + Cc1[nH]c2ccc(F)cc2c1-c1nc2c3cccnc3c3ncccc3c2[nH]1

1. 0.31
2. 36.3

Read off the recorded viability, T/C for C=CC(=O)N1CCN(c2nc(=O)n(-c3c(C)ccnc3C(C)C)c3nc(-c4c(O)cccc4F)c(F)cc23)C(C)C1 (stereo not drawn) + Cc1cnc(CNC(=O)c2c(=O)c3ccc(N4CCCN(C)CC4)nc3n3c2sc2ccccc23)cn1
39.5

====

tested on: 596521-263-R-J1-PDC complex spheroids, viability % of control; assay: Anticancer human tumor 596521-263-R-J1-PDC cell line growth inhibition [GQUAD]; details: curve of first compound; second compound 0.1 µM;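 also: spheroids exposed to drugs for 7 days before viability reading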
measured.attribute: pIC50
Give bare numbers, as −log10 of the molar value.

Read off the recorded pIC50 for O=C(NO)c1cnc(N2CCN(S(=O)(=O)c3ccc4ccccc4c3)CC2)nc1 + Cc1cnc(CNC(=O)c2c(=O)c3ccc(N4CCCN(C)CC4)nc3n3c2sc2ccccc23)cn1
6.99

***
Read off the recorded pIC50 for COc1ccc([C@@H](O)c2cc(-c3ncnc4cc(N5CCOCC5)ccc34)c(F)cc2Cl)nn1 + Cc1cnc(CNC(=O)c2c(=O)c3ccc(N4CCCN(C)CC4)nc3n3c2sc2ccccc23)cn1
5.82

====

test system: 596521-263-R-J1-PDC complex spheroids, viability % of control; experiment: Anticancer human tumor 596521-263-R-J1-PDC cell line growth inhibition [GQUAD]; details: curve of first compound; second compound 0.1 µM;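 also: spheroids exposed to drugs for 7 days before viability reading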
pIC50: −log10 of the molar value.
measured.attribute: pIC50

Read off the recorded pIC50 for CC1COCCN1c1cc(C2(S(C)(=N)=O)CC2)nc(-c2ccnc3[nH]ccc23)n1 (stereo not given) + Cc1[nH]c2ccc(F)cc2c1-c1nc2c3cccnc3c3ncccc3c2[nH]1
5.08

Read off the recorded pIC50 for CC(C)n1c(=O)n(C)c2cnc3cc(F)c(-c4ccc(OCCCN5CCCCC5)nc4)cc3c21 + Cc1cnc(CNC(=O)c2c(=O)c3ccc(N4CCCN(C)CC4)nc3n3c2sc2ccccc23)cn1
< 5.00

Read off the recorded pIC50 for CC(=O)O[C@H]1C(=O)[C@@]2(C)[C@H]([C@H](OC(=O)c3ccccc3)[C@]3(O)C[C@H](OC(=O)[C@H](O)[C@@H](NC(=O)c4ccccc4)c4ccccc4)C(C)=C1C3(C)C)[C@]1(OC(C)=O)CO[C@@H]1C[C@@H]2O + CN(C)c1ccc(Nc2c3ccc(NC(=O)CCN4CCCC4)cc3nc3cc(NC(=O)CCN4CCCC4)ccc23)cc1
> 7.50

Read off the recorded pIC50 for Cc1cccc(N(C)C(=O)C2C(O)CCN2c2nc(C)cc(C(F)(F)F)c2C#N)c1 (stereo not given) + Cc1[nH]c2ccc(F)cc2c1-c1nc2c3cccnc3c3ncccc3c2[nH]1
< 5.00

With those in mind, consider the next molecule.
Read off the recorded pIC50 for COc1ncnc(C2CC2)c1-c1ncc2cnn(Cc3ccc(-c4nc(C(F)(F)F)cn4C(C)C)cc3)c2n1 + CN(C)c1ccc(Nc2c3ccc(NC(=O)CCN4CCCC4)cc3nc3cc(NC(=O)CCN4CCCC4)ccc23)cc1
< 5.00

====

tested on: 596521-263-R-J1-PDC complex spheroids, viability % of control; assay: Anticancer human tumor 596521-263-R-J1-PDC cell line growth inhibition [GQUAD]; settings: curve of first compound; second compound 0.316 µM;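 also: spheroids exposed to drugs for 7 days before viability reading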
measured.attribute: pIC50
Numbers only, as −log10 of the molar value.

Kindly give each listed record's pIC50.
1. CCc1c2c(nc3ccc(O)cc13)-c1cc3c(c(=O)n1C2)COC(=O)[C@]3(O)CC + CN(C)c1ccc(Nc2c3ccc(NC(=O)CCN4CCCC4)cc3nc3cc(NC(=O)CCN4CCCC4)ccc23)cc1
2. COc1cc(C2c3cc4c(cc3C(OC3OC5COC(C)OC5C(O)C3O)C3COC(=O)C23)OCO4)cc(OC)c1O (stereo not given) + Cc1cnc(CNC(=O)c2c(=O)c3ccc(N4CCCN(C)CC4)nc3n3c2sc2ccccc23)cn1

[8.45, 5.55]

====

test system: 596521-263-R-J1-PDC complex spheroids, viability % of control; experiment: Anticancer human tumor 596521-263-R-J1-PDC cell line growth inhibition [GQUAD]; conditions: curve of first compound; second compound 0.316 µM;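 also: spheroids exposed to drugs for 7 days before viability reading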
Sorting guide: entries reporting IC50 beneath 500 nM go in the 1 pile, the rest go in the 0 pile.

Some solved entries appear below for comparison.
A record lists CC1COCCN1c1cc(C2(O)CC3CCC(C2)O3)c2cnn(-c3ccn[nH]3)c2n1 (stereo unspecified) + CN(C)c1ccc(Nc2c3ccc(NC(=O)CCN4CCCC4)cc3nc3cc(NC(=O)CCN4CCCC4)ccc23)cc1 . Is its IC50 below 500 nM?
1

A record lists C=CCn1c(=O)c2cnc(Nc3ccc(N4CCN(C)CC4)cc3)nc2n1-c1cccc(C(C)(C)O)n1 + Cc1[nH]c2ccc(F)cc2c1-c1nc2c3cccnc3c3ncccc3c2[nH]1 . Is its IC50 below 500 nM?
0

A record lists COc1ccc([C@@H](O)c2cc(-c3ncnc4cc(N5CCOCC5)ccc34)c(F)cc2Cl)nn1 + CN(C)c1ccc(Nc2c3ccc(NC(=O)CCN4CCCC4)cc3nc3cc(NC(=O)CCN4CCCC4)ccc23)cc1 . Is its IC50 below 500 nM?
0

A record lists C=CCn1c(=O)c2cnc(Nc3ccc(N4CCN(C)CC4)cc3)nc2n1-c1cccc(C(C)(C)O)n1 + CN(C)c1ccc(Nc2c3ccc(NC(=O)CCN4CCCC4)cc3nc3cc(NC(=O)CCN4CCCC4)ccc23)cc1 . Is its IC50 below 500 nM?
1

A record lists CC1COCCN1c1cc(-c2ccnn2C)c2ccnc(-c3ccn[nH]3)c2n1 (stereo unspecified) + CN(C)c1ccc(Nc2c3ccc(NC(=O)CCN4CCCC4)cc3nc3cc(NC(=O)CCN4CCCC4)ccc23)cc1 . Is its IC50 below 500 nM?
1

A record lists Cc1[nH]c2ccccc2c1CCNCc1ccc(/C=C/C(=O)NO)cc1 + Cc1cnc(CNC(=O)c2c(=O)c3ccc(N4CCCN(C)CC4)nc3n3c2sc2ccccc23)cn1 . Is its IC50 below 500 nM?
1

A record lists CCCS(=O)(=O)Nc1ccc(F)c(C(=O)c2c[nH]c3ncc(-c4ccc(Cl)cc4)cc23)c1F + CN(C)c1ccc(Nc2c3ccc(NC(=O)CCN4CCCC4)cc3nc3cc(NC(=O)CCN4CCCC4)ccc23)cc1 . Is its IC50 below 500 nM?
0

A record lists CC1COCCN1c1cc(C2(S(C)(=N)=O)CC2)nc(-c2ccnc3[nH]ccc23)n1 (stereo unspecified) + CN(C)c1ccc(Nc2c3ccc(NC(=O)CCN4CCCC4)cc3nc3cc(NC(=O)CCN4CCCC4)ccc23)cc1 . Is its IC50 below 500 nM?
0

***
A record lists CC(=O)O[C@H]1C(=O)[C@@]2(C)[C@H]([C@H](OC(=O)c3ccccc3)[C@]3(O)C[C@H](OC(=O)[C@H](O)[C@@H](NC(=O)c4ccccc4)c4ccccc4)C(C)=C1C3(C)C)[C@]1(OC(C)=O)CO[C@@H]1C[C@@H]2O + Cc1[nH]c2ccc(F)cc2c1-c1nc2c3cccnc3c3ncccc3c2[nH]1 . Is its IC50 below 500 nM?
1

A record lists CC1COCCN1c1cc(C2(S(C)(=N)=O)CC2)nc(-c2ccnc3[nH]ccc23)n1 (stereo unspecified) + Cc1[nH]c2ccc(F)cc2c1-c1nc2c3cccnc3c3ncccc3c2[nH]1 . Is its IC50 below 500 nM?
0

A record lists CCCS(=O)(=O)Nc1ccc(F)c(C(=O)c2c[nH]c3ncc(-c4ccc(Cl)cc4)cc23)c1F + Cc1[nH]c2ccc(F)cc2c1-c1nc2c3cccnc3c3ncccc3c2[nH]1 . Is its IC50 below 500 nM?
0
